Reference source for all entries: the SangsterLogP compilation

Assay: method code SF-AS, from DOI: 10.1248/cpb.32.4994, PMID: 6534548
Value kind: logP

Study these solved cases before continuing.
CCNc1cccc(NC(=O)Cc2ccccc2)c1 ... 2.59
O=C(Cc1ccccc1)Nc1ccc(O)cc1 ... 1.82
CC(=O)c1ccc(NC(=O)Cc2ccccc2)cc1 ... 2.75

1: CC(=O)Oc1cccc(NC(=O)Cc2ccccc2)c1
2: O=C(Cc1ccccc1)Nc1cccc(I)c1
Request: Hi there, can you help? I need to know whether 1 or 2 has lower measured logP. Please reply using the label of the selected record.
Result: 1

A: CS(=O)(=O)Oc1cccc(NC(=O)Cc2ccccc2)c1
B: O=C(Cc1ccccc1)Nc1cccc(Cl)c1
Request: In terms of reported logP, does A or B have the smaller number? Give the label under which the chosen entry appears.
Result: A
(A: 2.32, B: 3.61)

I: O=C(Cc1ccccc1)Nc1cccc([N+](=O)[O-])c1
II: Nc1cccc(NC(=O)Cc2ccccc2)c1
Request: // which entry reports the smaller logP, I or II ? Your answer should be the label attached to the chosen record.
Result: II
(II: 1.59, I: 2.93)

P: COc1ccc(NC(=O)Cc2ccccc2)cc1
Q: O=C(Cc1ccccc1)Nc1cccc(Br)c1
Request: Between P and Q , which one has the lower reported logP value? Reply with the label of the item you choose.
Result: P
(P: 2.49, Q: 3.77)
